study_system: Factor X (FX), P00742
Sequence (P00742 whole entry, looked up): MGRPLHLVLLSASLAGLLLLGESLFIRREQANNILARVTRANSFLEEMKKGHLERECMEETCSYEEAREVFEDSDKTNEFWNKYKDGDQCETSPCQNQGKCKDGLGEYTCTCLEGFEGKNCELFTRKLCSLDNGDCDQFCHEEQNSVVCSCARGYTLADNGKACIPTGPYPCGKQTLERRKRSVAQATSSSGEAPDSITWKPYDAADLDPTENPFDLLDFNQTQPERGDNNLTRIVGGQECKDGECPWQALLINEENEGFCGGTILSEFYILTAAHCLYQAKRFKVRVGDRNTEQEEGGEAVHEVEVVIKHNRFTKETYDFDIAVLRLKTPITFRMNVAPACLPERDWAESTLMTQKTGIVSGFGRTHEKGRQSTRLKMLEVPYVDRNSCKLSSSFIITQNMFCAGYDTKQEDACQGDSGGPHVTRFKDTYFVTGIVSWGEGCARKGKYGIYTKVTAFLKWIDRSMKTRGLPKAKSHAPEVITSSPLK
assay_metric: kcat of FX activation by FIXa in the Xase complex (FVIIIa, PC/PS vesicles, Ca2+)

input: Requested read-out: kcat of FX activation by FIXa in the Xase complex (FVIIIa, PC/PS vesicles, Ca2+). Entry: FIXa-D104N/K106S/K247N/N249S/N260S (protein) chain 1: YNSGKLEEFVQGNLERECMEEKCSFEEAREVFENTERTTEFWKQYVDGDQCESNPCLNGGSCKDDINSYECWCPFGFEGKNCELDVTCNIKNGRCEQFCKNSANNSVVCSCTEGYRLAENQKSCEPAVPFPCGRVSVSQTSKLTR chain 2: VVGGEDAKPGQFPWQVVLNGKVDAFCGGSIVNEKWIVTAAHCVETGVKITVVAGEHNIEETEHTEQNRSVIRIIPHHNYSAAINKYNHDIALLELDEPLVLNSYVTPICIADKEYTNIFLKFGSGYVSGWGRVFHKGRSALVLQYLRVPLVDRATCLRSTKFTIYNNMFCAGFHEGGRDSCQGDSGGPHVTEVEGTSFLTGIISWGEECAMKGKYGIYTKVSRYVNWIKEKTKLT
output: 0.6 s⁻¹
